Target: PDGFRβ (Homo sapiens (Human), UniProt P09619)
Sequence (P09619 33-1106): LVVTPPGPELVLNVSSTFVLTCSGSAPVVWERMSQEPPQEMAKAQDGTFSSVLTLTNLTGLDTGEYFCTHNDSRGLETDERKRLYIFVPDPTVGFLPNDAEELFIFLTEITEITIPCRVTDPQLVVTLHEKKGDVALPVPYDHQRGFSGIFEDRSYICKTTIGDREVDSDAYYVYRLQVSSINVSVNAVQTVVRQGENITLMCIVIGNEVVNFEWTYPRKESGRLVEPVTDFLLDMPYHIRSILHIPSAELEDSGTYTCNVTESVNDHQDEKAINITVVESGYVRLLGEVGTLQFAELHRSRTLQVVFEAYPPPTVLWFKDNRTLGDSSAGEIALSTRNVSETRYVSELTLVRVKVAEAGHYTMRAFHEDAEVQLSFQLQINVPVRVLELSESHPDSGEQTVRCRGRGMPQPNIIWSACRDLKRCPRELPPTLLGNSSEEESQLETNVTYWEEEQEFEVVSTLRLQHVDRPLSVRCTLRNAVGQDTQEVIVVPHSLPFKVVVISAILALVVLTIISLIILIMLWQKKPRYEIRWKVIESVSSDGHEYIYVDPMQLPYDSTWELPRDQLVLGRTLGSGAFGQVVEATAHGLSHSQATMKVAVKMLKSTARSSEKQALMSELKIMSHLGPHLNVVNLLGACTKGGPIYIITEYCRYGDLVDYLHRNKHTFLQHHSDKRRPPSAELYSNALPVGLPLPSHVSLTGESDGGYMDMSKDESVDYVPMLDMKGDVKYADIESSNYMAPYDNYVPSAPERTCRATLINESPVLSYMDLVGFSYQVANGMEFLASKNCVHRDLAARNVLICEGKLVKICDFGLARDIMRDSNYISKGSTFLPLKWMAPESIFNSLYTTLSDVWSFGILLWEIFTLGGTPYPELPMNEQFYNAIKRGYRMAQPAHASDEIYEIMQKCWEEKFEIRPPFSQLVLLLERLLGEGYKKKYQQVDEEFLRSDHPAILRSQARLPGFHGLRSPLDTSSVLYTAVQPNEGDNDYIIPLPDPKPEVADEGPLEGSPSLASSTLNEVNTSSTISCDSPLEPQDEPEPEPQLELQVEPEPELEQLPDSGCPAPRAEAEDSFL
testReadout: pKi
Note: pKi values are expressed as the negative base-10 logarithm of concentration in M.

Suppose we examine the compound COC(=O)c1cc2c(cc1C)/C(=C(/Nc1ccc(C(=O)NCC(=O)N3CCN(C)CC3)cc1)c1ccccc1)C(=O)N2 [Example 8] ; what pKi value has been reported?
8.09

###

Test: Pharmacokinetic measurements in rats, intravenous dosing
Assay type: in vivo
Conditions: male, CD, rat, lung, iv; read-out: lung concentration (nM) at time 1.5 h
testReadout: concentration at 1.5 h (nM)
Numbers only; they are read as nM.

These recorded examples may help you get a feel for the data.
INSERT INTO assay_data (smilesstr, valuemeasured) VALUES
  ('COC(=O)c1cc2c(cc1C)/C(=C(/Nc1ccc(C(=O)NCCN3CCC(N(C)C)CC3)cc1)c1ccccc1)C(=O)N2', 949),
  ('COC(=O)c1cc2c(cc1C)/C(=C(/Nc1ccc(C(=O)NCC(=O)N3CCN(CCO)CC3)cc1)c1ccccc1)C(=O)N2', 44);

Continue with the compound presented below.
Suppose we examine the compound `COC(=O)c1cc2c(cc1C)/C(=C(/Nc1ccc(C(=O)NCCN3CCCN(C)CC3)cc1)c1ccccc1)C(=O)N2` ; what concentration at 1.5 h value has been reported?
330

###

Experiment: Pharmacokinetic measurements in rats, intra-tracheal dosing
Format: in vivo
Conditions: male, CD, rat, lung, other: intra-tracheal; read-out: lung concentration (nM) at time 6 h
testReadout: concentration at 6 h
Respond with a number, then the unit of measure.

These recorded examples may help you get a feel for the data.
INSERT INTO results (compound, valuemeasured) VALUES
  ('COC(=O)c1cc2c(cc1C)/C(=C(/Nc1ccc(C(=O)NCCN3CCC(N(C)C)CC3)cc1)c1ccccc1)C(=O)N2 [Example 6]', '7820 nM'),
  ('COC(=O)c1cc2c(cc1C)/C(=C(/Nc1ccc(C(=O)NCCN3CCCN(C)CC3)cc1)c1ccccc1)C(=O)N2 [Example 5]', '1070 nM');

Suppose we examine the compound COC(=O)c1cc2c(cc1C)/C(=C(/Nc1ccc(C(=O)NCC(=O)N3CCN(CCO)CC3)cc1)c1ccccc1)C(=O)N2 [Example 7] ; what concentration at 6 h value has been reported?
116 nM

###

Assay: Pharmacokinetic measurements in rats, intra-tracheal dosing
Assay type: in vivo
Details: male, CD, rat, lung/plasma, other: intra-tracheal; read-out: lung/plasma conc ratio at time 0.1 h
testReadout: Kp at 0.1 h
A bare number is all that is needed in reply.

INSERT INTO measurements (compound, testreadout, valuemeasured) VALUES
  ('COC(=O)c1cc2c(cc1C)/C(=C(/Nc1ccc(C(=O)NCC(=O)N3CCN(CCO)CC3)cc1)c1ccccc1)C(=O)N2 [Example 7]', 'Kp at 0.1 h', 39),
  ('COC(=O)c1cc2c(cc1C)/C(=C(/Nc1ccc(C(=O)NCCN3CCC(N(C)C)CC3)cc1)c1ccccc1)C(=O)N2 [Example 6]', 'Kp at 0.1 h', 472);

Suppose we examine the compound COC(=O)c1cc2c(cc1C)/C(=C(/Nc1ccc(C(=O)NCCN3CCCN(C)CC3)cc1)c1ccccc1)C(=O)N2 [Example 5] ; what Kp at 0.1 h value has been reported?
371

###

The entries below come with measured Kp at 1.5 h values attached.
Test: Pharmacokinetic measurements in rats, intravenous dosing
Type: in vivo
Details: male, CD, rat, lung/plasma, iv; read-out: lung/plasma ratio at time 1.5 h

INSERT INTO results (smilesstr, valuemeasured) VALUES
  ('COC(=O)c1cc2c(cc1C)/C(=C(/Nc1ccc(C(=O)NCCN3CCCN(C)CC3)cc1)c1ccccc1)C(=O)N2', '> 188'),
  ('COC(=O)c1cc2c(cc1C)/C(=C(/Nc1ccc(C(=O)NCC(=O)N3CCN(CCO)CC3)cc1)c1ccccc1)C(=O)N2', 12);

Continue with the molecule presented below.
Suppose we examine the molecule `COC(=O)c1cc2c(cc1C)/C(=C(/Nc1ccc(C(=O)NCCN3CCC(N(C)C)CC3)cc1)c1ccccc1)C(=O)N2` ; what Kp at 1.5 h value has been reported?
> 558

###

Test: Pharmacokinetic measurements in rats, intravenous dosing
Assay type: in vivo
Conditions: male, CD, rat, lung, iv; read-out: lung concentration (nM) at time 0.1 h
testReadout: concentration at 0.1 h (nM)
Numbers only; they are read as nM.

INSERT INTO measurements (compound, valuemeasured) VALUES
  ('COC(=O)c1cc2c(cc1C)/C(=C(/Nc1ccc(C(=O)NCCN3CCC(N(C)C)CC3)cc1)c1ccccc1)C(=O)N2 [Example 6]', 1000);

Suppose we examine the compound COC(=O)c1cc2c(cc1C)/C(=C(/Nc1ccc(C(=O)NCCN3CCCN(C)CC3)cc1)c1ccccc1)C(=O)N2 [Example 5] ; what concentration at 0.1 h value has been reported?
765

Ok, now COC(=O)c1cc2c(cc1C)/C(=C(/Nc1ccc(C(=O)NCC(=O)N3CCN(CCO)CC3)cc1)c1ccccc1)C(=O)N2 [Example 7]
99

###

Test: Pharmacokinetic measurements in rats, intravenous dosing
Type: in vivo
Details: male, CD, rat, lung/plasma, iv; read-out: lung/plasma ratio at time 6 h
The entries below come with measured Kp at 6 h values attached.

INSERT INTO results (smilesstr, testreadout, valuemeasured) VALUES
  ('COC(=O)c1cc2c(cc1C)/C(=C(/Nc1ccc(C(=O)NCCN3CCC(N(C)C)CC3)cc1)c1ccccc1)C(=O)N2', 'Kp at 6 h', '> 552');

Continue with the molecule presented below.
Suppose we examine the molecule `COC(=O)c1cc2c(cc1C)/C(=C(/Nc1ccc(C(=O)NCCN3CCCN(C)CC3)cc1)c1ccccc1)C(=O)N2` ; what Kp at 6 h value has been reported?
> 284
